Assay details: Toxicity liver stage against HepG2, at 10uM
Type: cell-based
Parameters: test concentration 10 uM, cell line HepG2-A16-CD81EGFP
Condition details: human, HepG2-A16-CD81EGFP cells; read-out: INHIBITION
Value kind: cytotoxicity at 10 µM

Examples with their reported cytotoxicity at 10 µM follow.
1. O=c1ccc2c(n1Cc1cccnc1)CCN(Cc1ccoc1)CC2
-140%
2. CC1CCN(CC(=O)NC2CCN(C(C)c3ccccc3)CC2)CC1 (centres undefined)
-6.36%
3. CC(=O)N1C[C@H]2CC[C@@H](C1)N(S(=O)(=O)c1ccc(F)cc1Cl)C2
-0.756%
4. CSC(C)C(=O)N(C)CCCc1cc(-c2ccccc2)no1 (centres undefined)
2.63%
5. COc1ccc(F)cc1CSCC(=O)N(C)CCC#N
-2.32%

For reference, reported cytotoxicity at 10 µM for CC(C)c1nn(C)c(N(C)C)c1CNCc1cccc(CN(C)C)c1 stands at -4.22%

For reference, reported cytotoxicity at 10 µM for Cc1nc2n(n1)CC(NCC(=O)NCCC1=CCCCC1)CC2 (centres undefined) stands at -9.36%

For reference, reported cytotoxicity at 10 µM for CN(C)c1cc(C(F)(F)F)cc(-c2ccc(C(=O)O)cc2)n1 stands at 9.15%

For reference, reported cytotoxicity at 10 µM for COC(=O)c1sccc1S(=O)(=O)N1CCC(Oc2ncccc2Cl)CC1 stands at -16.8%

For reference, reported cytotoxicity at 10 µM for CC(=O)Nc1ccc(C(=O)NCCCn2cccc2)cc1 stands at -2.66%

For reference, reported cytotoxicity at 10 µM for CC(C)c1nsc(NC2CCOC3(CCCC3)C2)n1 (centres undefined) stands at 8.83%

For reference, reported cytotoxicity at 10 µM for CC1(C(=O)NCCN2CCCCC2)CCCN1C(=O)c1ccccc1 (centres undefined) stands at -6.44%

For reference, reported cytotoxicity at 10 µM for CCC(C)(C)CC(=O)NC(C)C(=O)Nc1ccc(-n2cncn2)cc1 (centres undefined) stands at 3.47%

For reference, reported cytotoxicity at 10 µM for N#Cc1cccc(N2CCCC3(CN(C(=O)c4ccc[nH]4)CCO3)C2)c1 (centres undefined) stands at 13.3%

For reference, reported cytotoxicity at 10 µM for N#Cc1cccc(N2CCCC(CO)(Cc3ccccc3F)C2)n1 (centres undefined) stands at 1.54%

For reference, reported cytotoxicity at 10 µM for NC(=O)c1cnc(NC2CCN(c3ccccc3)CC2)c(Cl)c1 stands at 6.07%

From: ChEMBL document CHEMBL4513216
